- System: E. coli WP2
- procedure summary: Ames microplate test, E. coli WP2;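 also: bacteria treated 90 min at 37 °C in 24-well plates, then indicator medium dispensed to 384-well plates and incubated 48 h before yellow-well counting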
- condition summary: 2.0 mM, +S9
Overview of recorded Increase in the number of yellow wells compared to the reference level for various compounds
Please respond with just the number, no unit label.

Worked cases, Increase in the number of yellow wells compared to the reference level given:
- CCC(O)CNC(=O)/C=C/c1ccc(Cl)cc1 (stereo not shown) [Compound A-67]: 1.42
- O=C(/C=C/c1ccccc1)NCCCCCCO [H-425/21]: 0.75
- O=C(/C=C/c1ccc(Cl)cc1)NCCCCCO [Compound A-111]: 0.98

*Q* Look at this compound and give its reported Increase in the number of yellow wells compared to the reference level. O=C(/C=C/c1ccccc1)NCCCCCO [Compound A-133]
*A* 0.53

====

Measured Keratinocytes (HaCaT) MTT, listed per entry.
- System: Keratinocytes (HaCaT)
- procedure summary: Safety, MTT test in keratinocytes
- Format: cell-based
- condition summary: 200 µM; 48 hours

- O=C(/C=C/c1ccc(Cl)cc1)NCCCCCO: 101.04±2.77 % of solvent control
- O=C(/C=C/c1ccccc1)NCCCCCO: 101.51±2.49 % of solvent control
- Cc1ccc(/C=C/C(=O)NCCCCCO)cc1: 100.88±1.40 % of solvent control
- O=C(/C=C/c1ccc(Cl)cc1)NCCO: 99.24±3.00 % of solvent control

Now take the following molecule into account.
*Q* Look up Keratinocytes (HaCaT) MTT: O=C(/C=C/c1ccc(Cl)cc1)NCCCO
*A* 97.07±2.81 % of solvent control

====

- Tested on: S. typhimurium TA100
- procedure summary: Ames microplate test, TA100;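 also: reference level is the mean solvent-control yellow wells plus SD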
- Format: cell-based, Salmonella typhimurium
- condition summary: 1.0 mM, without S9
property: Increase in the number of yellow wells compared to the reference level
Give your answer as a number; write no unit.

Some solved cases for reference:
* O=C(/C=C/c1ccccc1)NCCCCCO | 1.03
* Cc1ccc(/C=C/C(=O)NCCCCCO)cc1 | 0.58
* O=C(/C=C/c1ccc(Cl)cc1)NCCCCCO | 0.39
* O=C(/C=C/c1ccccc1)NCCCCCCO | 0.80
* CC(CO)NC(=O)/C=C/c1ccc(Cl)cc1 (stereo not drawn) | 0.75

Proceeding to the next compound to report its Increase in the number of yellow wells compared to the reference level.
*Q* Returns the measured Increase in the number of yellow wells compared to the reference level for the input compound. Input: CCC(O)CNC(=O)/C=C/c1ccc(Cl)cc1 (stereo not drawn)
*A* 0.93

====

- Test system: Chinese hamster ovary cell line (CHO-K1)
- procedure summary: Cytotoxicity in CHO-K1 cells (MTT) before the micronucleus test
- Format: cell-based
- condition summary: 200 µM, 24 hours
property: % Viability [mean] (%)
The response must be a number in % with no trailing unit.

Here are 5 molecules together with their reported answers.
* CCC(O)CNC(=O)/C=C/c1ccc(Cl)cc1 (stereo not drawn) | 84.0
* Cc1ccc(/C=C/C(=O)NCCCCCO)cc1 | 87.2
* O=C(/C=C/c1ccccc1)NCCCCCCO | 88.0
* CC(CO)NC(=O)/C=C/c1ccc(Cl)cc1 (stereo not drawn) | 87.2
* O=C(/C=C/c1ccc(Cl)cc1)NCCCCCO | 98.6

*Q* Notebook entry, Chinese hamster ovary cell line (CHO-K1) assay: % Viability [mean] of O=C(/C=C/c1ccccc1)NCCCCCO = ?
*A* 89.1

The reported numbers originate from patent EP4324461A1.
